System: OVCAR-5 ovarian
Assay: NCI tumour cell line growth inhibition, 48 h
Reported TGI values for a set of molecules

QUERY: Fill in: TGI of `CCc1nc2ccc(Cc3ccc(C(=O)NO)cc3)cc2c(=O)n1CCc1ccccc1` is ___
RESULT: 12.8 µM

QUERY: Any idea what TGI was measured for `NC(=NC1CCCCCC1)c1ccc(N2CCN(c3ccc(C(N)=NC4CCCCCC4)cc3)CC2)cc1` ?
RESULT: > 50 µM

QUERY: What TGI value was documented for this molecule, `Cc1nn2c(/C=C3/C(=O)Nc4ccc(Cl)cc43)c(-c3ccccc3)nc2s1` ?
RESULT: 25.9 µM

QUERY: Entry `O=C(N/N=C/c1cc(Br)cc(Br)c1[O-])c1ccccc1O.O=C(N/N=C/c1cc(Br)cc(Br)c1[O-])c1ccccc1O.[Mn+2]` : reported TGI = ?
RESULT: 16.4 µM

QUERY: Using the record for `Cc1ccc(C2=Nc3ccccc3NC(=O)C2)cc1` , report its TGI.
RESULT: > 100 µM

QUERY: Would you kindly share the measured TGI for `c1cncc(C(Nc2cccc3cccnc23)Nc2cccc3cccnc23)c1` ?
RESULT: > 100 µM

###

Test system: IGROV1 ovarian
Experiment: NCI tumour cell line growth inhibition, 48 h
measure: TGI

Solved entries:
[
  {
    "compound": "O=S(=O)(O)Nc1ccc(-c2nc3ccccc3s2)cc1Cl",
    "study system": "IGROV1 ovarian",
    "result": "> 100 µM"
  },
  {
    "compound": "O=[N+]([O-])c1cc(Br)cc2c1[nH]c1ccc(Br)cc12",
    "study system": "IGROV1 ovarian",
    "result": "38.7 µM"
  },
  {
    "compound": "CCOC(=O)c1ccc(Nc2nc3ccc(C(F)(F)F)cc3nc2-c2ccccc2)cc1",
    "study system": "IGROV1 ovarian",
    "result": "> 100 µM"
  },
  {
    "compound": "CCOC(=O)/C=C/[C@H](O[Si](c1ccccc1)(c1ccccc1)c1ccccc1)C(C)(C)C",
    "study system": "IGROV1 ovarian",
    "result": "> 31.6 µM"
  },
  {
    "compound": "COc1ccc(S(=O)Cc2cc(OC)ccc2OC)cc1 (configuration not stated)",
    "study system": "IGROV1 ovarian",
    "result": "> 100 µM"
  },
  {
    "compound": "O=C(Nc1ccc2oc(=O)c(C(=O)O)cc2c1)Oc1ccccc1",
    "study system": "IGROV1 ovarian",
    "result": "> 100 µM"
  },
  {
    "compound": "C/C(=N/NC(=S)N(Cc1ccccn1)Cc1ccccn1)c1cnccn1",
    "study system": "IGROV1 ovarian",
    "result": "2.78 µM"
  },
  {
    "compound": "OCC1CCCCN1Cc1nc2ccc(Cl)cc2[nH]1 (configuration not stated)",
    "study system": "IGROV1 ovarian",
    "result": "> 100 µM"
  }
]

QUERY: Sample `CC(=S)NNC(=O)c1ccncc1` — what was its TGI?
RESULT: > 100 µM

QUERY: If you can, please state the reported TGI value of `COc1ccc(C=NC23CC4CC(CC(C4)C2)C3)cc1` .
RESULT: > 100 µM

QUERY: Fill in the blank: the reported TGI of `Cc1cc(-c2nc3ccc(O)cc3s2)ccc1N` is ____.
RESULT: > 100 µM

QUERY: Endpoint output: TGI of CCOC(=O)C1(Cc2ccccc2)CCN(C(=O)c2ccccc2)C2C1C2(Cl)Cl (configuration not stated) . Value?
RESULT: > 100 µM
